Test system: ACHN
Experiment: Induction of HSP70 expression in human ACHN cells at 2.5 to 5 uM measured after 24 hrs by Western blotting method
Format: functional, cell-based
Calls of active or inactive are those of the source. The calls are words filed in the database; no cut-off is given here.
The reply should name one outcome from active, inactive

- compound: "CC1=C(C)C(=O)O[C@@H]([C@](C)(O)[C@]2(O)CC[C@@]3(O)[C@@H]4C[C@H]5O[C@]56CC=CC(=O)[C@]6(C)[C@H]4CC[C@]23C)C1 [WITHANOLIDE E]"
  assignedClass: "inactive"
- compound: "CC(=O)OCC1=C(C)C[C@H]([C@@H](C)[C@H]2CC[C@H]3[C@@H]4C[C@H]5O[C@]56[C@H](OC(C)=O)C=CC(=O)[C@]6(C)[C@H]4CC[C@]23C)OC1=O"
  assignedClass: "active"
- compound: "CC1=C(CO)C(=O)O[C@@H]([C@@H](C)[C@H]2CC[C@H]3[C@@H]4C[C@H]5O[C@]56[C@@H](O)C=CC(=O)[C@]6(C)[C@H]4CC[C@]23C)C1"
  assignedClass: "active"

Would you kindly look at the next entry?
Give the logged outcome of this assay for the following compound: CC(=O)OC[C@]12CC[C@H]3[C@@H](C[C@H]4O[C@]45CC=CC(=O)[C@]35C)[C@]1(O)CC[C@@]2(O)[C@@](C)(O)[C@H]1CC(C)=C(C)C(=O)O1
inactive

* * *

Test: Glutathione reactivity in DMSO assessed as formation of MIchael adduct with GSH at pH 7.4 after 24 hrs in presence of NAC by HPLC method
Activity calls are given as the source filed them. The rule behind the calls is not given here.
The reply should name one outcome from YES = active, NO = inactive

Previously resolved entries follow.
- compound: "CC1=C(CO)C(=O)O[C@@H]([C@@H](C)[C@H]2CC[C@H]3[C@@H]4C[C@H]5O[C@]56[C@@H](O)C=CC(=O)[C@]6(C)[C@H]4CC[C@]23C)C1"
  assignedClass: "YES"
- compound: "CC(=O)OC[C@]12CC[C@H]3[C@@H](C[C@@H]4O[C@@]45CC=CC(=O)[C@]35C)[C@]1(O)CC[C@@]2(O)[C@@](C)(O)[C@H]1CC(C)=C(C)C(=O)O1"
  assignedClass: "NO"
- compound: "CC1=C(C)C(=O)O[C@@H]([C@](C)(O)[C@]2(O)CC[C@@]3(O)[C@@H]4C[C@H]5O[C@]56[C@@H](O)C=CC(=O)[C@]6(C)[C@H]4CC[C@]23C)C1"
  assignedClass: "YES"

Would you kindly look at the next entry?
Give the logged outcome of this assay for the following compound: CC1=C(C)C(=O)O[C@@H]([C@](C)(O)[C@]2(O)CC[C@@]3(O)[C@@H]4C[C@H]5O[C@]56CC=CC(=O)[C@]6(C)[C@H]4CC[C@]23C)C1 [WITHANOLIDE E]
YES

* * *

Tested on: ACHN
Experiment: Induction of CHOP expression in human ACHN cells at 2.5 to 5 uM measured after 24 hrs by Western blotting method
Type: functional, cell-based
Activity calls are given as the source filed them. No cut-off for these calls is given here.
The reply should name one outcome from active, inactive

Give the logged outcome of this assay for the following compound: CC1=C(CO)C(=O)O[C@@H]([C@@H](C)[C@H]2CC[C@H]3[C@@H]4C[C@H]5O[C@]56[C@@H](O)C=CC(=O)[C@]6(C)[C@H]4CC[C@]23C)C1 [WITHAFERIN A]
active

Give the logged outcome of this assay for the following compound: CC1=C(C)C(=O)O[C@@H]([C@](C)(O)[C@]2(O)CC[C@@]3(O)[C@@H]4C[C@H]5O[C@]56CC=CC(=O)[C@]6(C)[C@H]4CC[C@]23C)C1 [WITHANOLIDE E]
inactive

Give the logged outcome of this assay for the following compound: CC(=O)OCC1=C(C)C[C@H]([C@@H](C)[C@H]2CC[C@H]3[C@@H]4C[C@H]5O[C@]56[C@H](OC(C)=O)C=CC(=O)[C@]6(C)[C@H]4CC[C@]23C)OC1=O
active

Give the logged outcome of this assay for the following compound: CC(=O)OC[C@]12CC[C@H]3[C@@H](C[C@H]4O[C@]45CC=CC(=O)[C@]35C)[C@]1(O)CC[C@@]2(O)[C@@](C)(O)[C@H]1CC(C)=C(C)C(=O)O1
inactive

* * *

System: ACHN
Test: Cytotoxicity in human ACHN cells assessed as reduce cell number after 48 hrs by MTS assay
Assay type: cell-based

- molecule: "CC1=C(C)C(=O)O[C@@H]([C@](C)(O)[C@]2(O)CC[C@@]3(O)[C@@H]4C[C@H]5O[C@]56CC=CC(=O)[C@]6(C)[C@H]4CC[C@]23C)C1 [WITHANOLIDE E]"
  Activity: "Toxic"
- molecule: "CC1=C(C)C(=O)O[C@@H]([C@](C)(O)[C@]2(O)CC[C@@]3(O)[C@@H]4C[C@H]5O[C@]56[C@@H](O)C=CC(=O)[C@]6(C)[C@H]4CC[C@]23C)C1"
  Activity: "Toxic"
- molecule: "COC(=O)O[C@H]1C=CC(=O)[C@]2(C)[C@H]3CC[C@]4(C)[C@](O)([C@@](C)(O)[C@H]5CC(C)=C(C)C(=O)O5)CC[C@@]4(O)[C@@H]3C[C@H]3O[C@]132"
  Activity: "Toxic"

* * *

Test system: ACHN
Experiment: Cytotoxicity in human ACHN cells assessed as viable cells at 1250 to 5000 nM after 48 hrs by MTS assay
Type: cell-based
Conditions: 5 µM

- compound: "CC1=C(CO)C(=O)O[C@@H]([C@@H](C)[C@H]2CC[C@H]3[C@@H]4C[C@H]5O[C@]56[C@@H](O)C=CC(=O)[C@]6(C)[C@H]4CC[C@]23C)C1"
  Activity: "Toxic"
- compound: "CC(=O)OC[C@]12CC[C@H]3[C@@H](C[C@H]4O[C@]45CC=CC(=O)[C@]35C)[C@]1(O)CC[C@@]2(O)[C@@](C)(O)[C@H]1CC(C)=C(C)C(=O)O1"
  Activity: "Non-Toxic"
- compound: "CC1=C(C)C(=O)O[C@@H]([C@](C)(O)[C@]2(O)CC[C@@]3(O)[C@@H]4C[C@H]5O[C@]56CC=CC(=O)[C@]6(C)[C@H]4CC[C@]23C)C1 [WITHANOLIDE E]"
  Activity: "Non-Toxic"
- compound: "CC1=C(C)C(=O)O[C@@H]([C@](C)(O)[C@]2(O)CC[C@@]3(O)[C@@H]4C[C@H]5O[C@]56[C@H](O)C=CC(=O)[C@]6(C)[C@H]4CC[C@]23C)C1"
  Activity: "Non-Toxic"
